The values you see were collected from the Kinase Knowledgebase extract (Sharma et al. 2016).

# TARGET_ENTITY: EGFR (human) (UniProt P00533)
# Sequence (P00533 whole entry, looked up): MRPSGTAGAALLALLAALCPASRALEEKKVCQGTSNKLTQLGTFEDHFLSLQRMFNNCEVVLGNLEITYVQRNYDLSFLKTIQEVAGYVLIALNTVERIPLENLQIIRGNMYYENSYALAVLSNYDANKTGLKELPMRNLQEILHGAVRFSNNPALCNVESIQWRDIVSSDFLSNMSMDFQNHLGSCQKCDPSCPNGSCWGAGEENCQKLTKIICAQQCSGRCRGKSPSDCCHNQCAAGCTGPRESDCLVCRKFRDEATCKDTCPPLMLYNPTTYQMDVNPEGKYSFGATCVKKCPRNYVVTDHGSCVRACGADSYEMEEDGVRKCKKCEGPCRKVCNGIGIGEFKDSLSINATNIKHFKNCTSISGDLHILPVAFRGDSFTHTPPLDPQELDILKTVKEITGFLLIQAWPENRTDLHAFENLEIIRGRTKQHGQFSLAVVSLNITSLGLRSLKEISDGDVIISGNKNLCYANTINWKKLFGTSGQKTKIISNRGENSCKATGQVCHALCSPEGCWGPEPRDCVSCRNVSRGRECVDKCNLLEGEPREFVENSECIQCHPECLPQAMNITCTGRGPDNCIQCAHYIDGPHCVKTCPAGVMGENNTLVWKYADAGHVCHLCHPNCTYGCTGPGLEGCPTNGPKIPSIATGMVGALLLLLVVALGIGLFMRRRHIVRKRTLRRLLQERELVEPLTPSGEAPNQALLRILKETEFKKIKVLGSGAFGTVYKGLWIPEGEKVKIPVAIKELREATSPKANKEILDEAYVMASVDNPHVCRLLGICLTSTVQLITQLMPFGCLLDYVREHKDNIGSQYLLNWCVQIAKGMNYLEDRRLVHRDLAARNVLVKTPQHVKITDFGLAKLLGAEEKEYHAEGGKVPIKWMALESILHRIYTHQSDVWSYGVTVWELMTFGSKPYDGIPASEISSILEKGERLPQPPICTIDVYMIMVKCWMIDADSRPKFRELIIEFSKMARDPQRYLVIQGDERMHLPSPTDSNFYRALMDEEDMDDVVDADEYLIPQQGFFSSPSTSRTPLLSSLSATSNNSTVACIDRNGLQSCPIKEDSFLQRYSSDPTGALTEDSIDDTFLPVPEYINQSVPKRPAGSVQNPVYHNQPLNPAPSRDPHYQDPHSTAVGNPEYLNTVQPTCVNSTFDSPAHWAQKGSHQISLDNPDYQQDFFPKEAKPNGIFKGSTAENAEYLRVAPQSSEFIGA
pIC50: −log10 of the molar value.
METRIC: pIC50

O=C(C1CC1)N1CCN(CC(O)Cn2ccc(-c3ccc4ncnc(Nc5ccc(OCc6cccc(F)c6)c(Cl)c5)c4c3)c2)CC1 (configuration not stated) ... 6.71

A. Fc1ccc(Nc2ncnc3ccc(-c4cc[nH]c4)cc23)cc1Cl
B. Fc1cccc(COc2ccc(Nc3ncnc4ccc(-n5cc(CNCCN6CCCCC6)c(C(F)(F)F)c5)cc34)cc2Cl)c1
C. CS(=O)(=O)CCNCc1cn(-c2ccc3ncnc(Nc4ccc(OCc5ccccn5)c(Cl)c4)c3c2)cc1CCO
In: Arrange the 3 entries by pIC50 so the values rise. Response format: the labels, sorted as the prompt asks.
Out: A, C, B
